Hello, the source for this data is ChEMBL document CHEMBL1201862, in case you need it.

Molecular target: Trace amine-associated receptor 1 (Homo sapiens)
Sequence (Q96RJ0 whole entry): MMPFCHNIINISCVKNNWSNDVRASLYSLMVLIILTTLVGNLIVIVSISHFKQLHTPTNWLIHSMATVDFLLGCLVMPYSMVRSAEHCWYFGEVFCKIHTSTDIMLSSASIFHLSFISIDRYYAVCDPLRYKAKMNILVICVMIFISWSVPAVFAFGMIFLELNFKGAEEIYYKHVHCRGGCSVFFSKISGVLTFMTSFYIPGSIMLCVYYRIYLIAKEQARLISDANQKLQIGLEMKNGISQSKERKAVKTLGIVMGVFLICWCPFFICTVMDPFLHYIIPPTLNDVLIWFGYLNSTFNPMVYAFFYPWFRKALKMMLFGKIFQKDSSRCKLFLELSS
Assay: Counterscreen for agonists of the human trace amine associated receptor 1 (hTAAR1): Fluorescence-based cell-based high throughput dose response assay to identify hTAAR1 agonist that also desensitize TAAR1 receptor response.
Assay type: functional
Active and inactive are the calls of the source.
Classes used: active, inactive

[
  {
    "Smiles string": "COC(=O)[C@@]12C[C@@H](CC(=O)NCCc3ccccc3OC)C(=O)N(Cc3ccc4c(c3)OCO4)C1=CCC(C)(C)C2",
    "Answer label": "active"
  },
  {
    "Smiles string": "CCNC1=NN=C(c2cc(C)n(CCc3ccccc3)c2C)CS1",
    "Answer label": "active"
  },
  {
    "Smiles string": "CCOC(=O)N[C@H](C(=O)N1CCC[C@H]1C(=O)NCCc1ccccc1Cl)C1CCCCC1",
    "Answer label": "active"
  },
  {
    "Smiles string": "O=C(N[C@H](C(=O)N1CCC[C@H]1C(=O)NCCc1ccccc1Cl)C1CCCCC1)c1ccccc1",
    "Answer label": "active"
  },
  {
    "Smiles string": "Oc1nncc(N/N=C/c2ccccc2)c1Cl",
    "Answer label": "active"
  },
  {
    "Smiles string": "Clc1ccc(-c2nc3cc[nH]cc-3n2)cc1",
    "Answer label": "inactive"
  }
]

====

We begin with a simple list: items and their reported IC50.
Target: DNA dC->dU-editing enzyme APOBEC-3G (Homo sapiens, UniProt Q9HC16);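 note: Dose-response counterscreen measuring inhibition of APOBEC3G DNA deaminase activity, run while confirming APOBEC3A inhibitors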
Sequence (Q9HC16 whole entry): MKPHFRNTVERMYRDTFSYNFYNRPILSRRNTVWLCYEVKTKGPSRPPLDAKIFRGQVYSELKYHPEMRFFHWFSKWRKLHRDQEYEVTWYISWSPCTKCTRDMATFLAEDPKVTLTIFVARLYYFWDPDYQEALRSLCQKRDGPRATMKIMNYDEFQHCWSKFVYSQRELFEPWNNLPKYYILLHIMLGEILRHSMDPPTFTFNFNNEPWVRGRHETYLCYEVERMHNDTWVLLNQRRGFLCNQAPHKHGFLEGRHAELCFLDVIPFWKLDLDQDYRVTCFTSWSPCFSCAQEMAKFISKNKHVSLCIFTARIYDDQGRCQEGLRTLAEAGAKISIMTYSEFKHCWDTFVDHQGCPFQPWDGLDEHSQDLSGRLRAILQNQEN
Assay type: functional
The source made the active and inactive calls.

[
  {
    "Molecule": "CCN1CCN(c2ccc(S(=O)(=O)N3CCCCC3)cc2NC(=O)c2cccc(C(F)(F)F)c2)CC1",
    "System tested": "DNA dC->dU-editing enzyme APOBEC-3G (Homo sapiens, UniProt Q9HC16)",
    "IC50": "13.2 µM (active)"
  },
  {
    "Molecule": "CC[n+]1c(C)n(Cc2ccccc2)c2ccc(C(=O)OC)cc21",
    "System tested": "DNA dC->dU-editing enzyme APOBEC-3G (Homo sapiens, UniProt Q9HC16)",
    "IC50": "3.62 µM (active)"
  },
  {
    "Molecule": "C[n+]1cccc(C(=O)N/N=C/c2ccc3c(c2)OCO3)c1",
    "System tested": "DNA dC->dU-editing enzyme APOBEC-3G (Homo sapiens, UniProt Q9HC16)",
    "IC50": "8.99 µM (active)"
  },
  {
    "Molecule": "COC(=O)C(C)N1C(=O)S/C(=C\\c2ccc(-c3ccc(C(=O)O)cc3C)o2)C1=O (stereo unspecified)",
    "System tested": "DNA dC->dU-editing enzyme APOBEC-3G (Homo sapiens, UniProt Q9HC16)",
    "IC50": "4.97 µM (active)"
  },
  {
    "Molecule": "CCOC(=O)C1CCN(S(=O)(=O)c2ccc3c(c2)CC(=O)N3C)CC1",
    "System tested": "DNA dC->dU-editing enzyme APOBEC-3G (Homo sapiens, UniProt Q9HC16)",
    "IC50": "4 µM (active)"
  },
  {
    "Molecule": "O=C(Nc1ccc(NC(=O)c2ccc(Cl)cc2Cl)cc1)c1cccs1",
    "System tested": "DNA dC->dU-editing enzyme APOBEC-3G (Homo sapiens, UniProt Q9HC16)",
    "IC50": "11.8 µM (active)"
  }
]

====

Parameter 'readout' = AC50; parameter 'system' = UniProt P08684.
Sequence (P08684 whole entry): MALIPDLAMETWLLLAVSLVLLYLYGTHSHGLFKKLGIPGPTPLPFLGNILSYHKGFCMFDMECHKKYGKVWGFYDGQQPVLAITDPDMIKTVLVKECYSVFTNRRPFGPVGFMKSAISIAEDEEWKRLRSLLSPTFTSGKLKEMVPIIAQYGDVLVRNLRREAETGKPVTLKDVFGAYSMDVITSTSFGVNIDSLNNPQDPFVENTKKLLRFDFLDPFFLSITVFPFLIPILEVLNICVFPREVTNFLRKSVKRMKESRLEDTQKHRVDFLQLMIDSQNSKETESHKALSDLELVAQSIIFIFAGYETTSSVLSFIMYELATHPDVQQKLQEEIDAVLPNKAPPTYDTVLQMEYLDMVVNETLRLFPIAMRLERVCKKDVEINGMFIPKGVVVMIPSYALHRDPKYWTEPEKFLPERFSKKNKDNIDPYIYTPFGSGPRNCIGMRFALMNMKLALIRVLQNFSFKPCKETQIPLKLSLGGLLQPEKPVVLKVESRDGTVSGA
Property measured: AC50

[
  {
    "Molecule": "COc1cccc(Cn2c(=O)c(-c3cccs3)nc3cnc(OCc4ccccc4)nc32)c1",
    "Result": "7.94 µM (inconclusive)"
  },
  {
    "Molecule": "CCOC(=O)c1c(NC(=O)Nc2ccccc2)sc(C)c1C",
    "Result": "25.1 µM (inconclusive)"
  },
  {
    "Molecule": "Cc1ccccc1N1C(=O)NC(=O)/C(=C/Nc2ccc(N(C)C)cc2)C1=O",
    "Result": "0.398 µM (inconclusive)"
  },
  {
    "Molecule": "CCn1c2ccccc2c2cc(/N=C3/SC(CC(=O)Nc4ccccc4OC)C(=O)N3C)ccc21 (stereo not given)",
    "Result": "2.82 µM (inconclusive)"
  },
  {
    "Molecule": "CO[C@@H]1COC(=O)C/C=C\\[C@@H](C)[C@H](OC)COC(=O)[C@H](COCc2ccccc2)NC(=O)C/C=C\\[C@H]1C",
    "Result": "5.01 µM (inconclusive)"
  },
  {
    "Molecule": "Cc1cc(C)n(C(=O)c2cc3c(s2)CCCC3)n1",
    "Result": "39.8 µM (inconclusive)"
  },
  {
    "Molecule": "O=C(CCN1CCc2ccccc2C1)Nc1ccc(F)cc1",
    "Result": "15.8 µM (inconclusive)"
  },
  {
    "Molecule": "CSc1nc2ccccc2cc1/C=C(\\C#N)c1cccc(C)c1",
    "Result": "25.1 µM (inconclusive)"
  },
  {
    "Molecule": "COc1cccc(Cn2c(=O)c(-c3ccccc3)nc3cnc(N4CCN(C)CC4)nc32)c1",
    "Result": "31.6 µM (inconclusive)"
  },
  {
    "Molecule": "Cn1c(=O)n(C)c2cc(/C=N/NC(=O)c3ccc(Cl)cc3Cl)ccc21",
    "Result": "0.0398 µM (inconclusive)"
  }
]

====

Molecular target: UniProtKB Q96RJ0
Assay: Fluorescence-based cell-based high throughput dose response assay to identify agonists of the human trace amine associated receptor 1 (TAAR1).
Type: functional
Calls of active or inactive are those of the source.
Outcome codes: label 1 (active), label 0 (inactive)

[
  {
    "Smiles string": "Clc1ccc(-c2nc3cc[nH]cc-3n2)cc1",
    "Answer label": "label 0"
  },
  {
    "Smiles string": "O=C(N[C@H](C(=O)N1CCC[C@H]1C(=O)NCCc1ccccc1Cl)C1CCCCC1)c1ccccc1",
    "Answer label": "label 1"
  },
  {
    "Smiles string": "CCNC1=NN=C(c2cc(C)n(CCc3ccccc3)c2C)CS1",
    "Answer label": "label 1"
  },
  {
    "Smiles string": "CCOC(=O)N[C@H](C(=O)N1CCC[C@H]1C(=O)NCCc1ccccc1Cl)C1CCCCC1",
    "Answer label": "label 1"
  },
  {
    "Smiles string": "Oc1nncc(N/N=C/c2ccccc2)c1Cl",
    "Answer label": "label 1"
  },
  {
    "Smiles string": "COC(=O)[C@@]12C[C@@H](CC(=O)NCCc3ccccc3OC)C(=O)N(Cc3ccc4c(c3)OCO4)C1=CCC(C)(C)C2",
    "Answer label": "label 1"
  }
]

====

Reported AC50 is given for each of the following compounds.
Target: Microphthalmia-associated transcription factor (Homo sapiens, UniProt O75030)
Sequence (O75030 whole entry): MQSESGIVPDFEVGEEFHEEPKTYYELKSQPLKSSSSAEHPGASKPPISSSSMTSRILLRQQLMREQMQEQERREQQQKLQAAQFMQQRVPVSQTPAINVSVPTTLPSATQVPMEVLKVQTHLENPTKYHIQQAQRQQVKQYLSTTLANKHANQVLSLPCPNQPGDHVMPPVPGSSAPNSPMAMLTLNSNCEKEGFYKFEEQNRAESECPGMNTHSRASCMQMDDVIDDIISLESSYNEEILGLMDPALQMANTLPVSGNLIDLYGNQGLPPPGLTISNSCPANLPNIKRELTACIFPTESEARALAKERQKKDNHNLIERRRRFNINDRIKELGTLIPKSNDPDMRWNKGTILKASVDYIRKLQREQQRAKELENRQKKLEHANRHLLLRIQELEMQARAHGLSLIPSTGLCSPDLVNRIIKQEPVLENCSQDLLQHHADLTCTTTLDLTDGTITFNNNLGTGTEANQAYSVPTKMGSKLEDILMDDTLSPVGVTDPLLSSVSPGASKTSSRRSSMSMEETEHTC
Test: reducers of TRPM1 reporter luminescence, concentration series – cell-based, SK-MEL-5, cherry-picked, set 3, MITF inhibitor project, dose response (AID 493073);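 note: SK-MEL-5 melanoma cells with luciferase driven by the MITF target TRPM1 promoter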
Assay type: functional
Activity calls are given as the source filed them.

[
  {
    "Compound": "NCCN1C(=O)S/C(=C\\c2ccc3c(c2)OCO3)C1=O",
    "AC50": "22.3 µM (active)"
  },
  {
    "Compound": "CCS(=O)(=O)c1ccc(N=Nc2ccc(O)c3ncccc23)c(OC)c1",
    "AC50": "9.23 µM (active)"
  },
  {
    "Compound": "O=C(NC1=NCCS1)C1COc2ccccc2O1 (configuration not stated)",
    "AC50": "1.7 µM (active)"
  },
  {
    "Compound": "CCOc1cc(/C=C\\[N+](=O)[O-])ccc1OCC(=O)N1CCOCC1",
    "AC50": "7.35 µM (active)"
  },
  {
    "Compound": "CCC(=O)N1CCN(c2ccc(Cl)cc2NC(=O)c2ccc([N+](=O)[O-])o2)CC1",
    "AC50": "12.4 µM (active)"
  },
  {
    "Compound": "Cc1ccc2sc(N(CCCN(C)C)C(=O)c3ccc(S(=O)(=O)N(C)C4CCCCC4)cc3)nc2c1C",
    "AC50": "18 µM (active)"
  },
  {
    "Compound": "Cc1cnc(NC(=O)c2nn(C)cc2[N+](=O)[O-])s1",
    "AC50": "20.6 µM (active)"
  }
]

====

Biological target: Calpain-2 catalytic subunit (Sus scrofa, UniProt P43367)
Sequence (P43367 whole entry): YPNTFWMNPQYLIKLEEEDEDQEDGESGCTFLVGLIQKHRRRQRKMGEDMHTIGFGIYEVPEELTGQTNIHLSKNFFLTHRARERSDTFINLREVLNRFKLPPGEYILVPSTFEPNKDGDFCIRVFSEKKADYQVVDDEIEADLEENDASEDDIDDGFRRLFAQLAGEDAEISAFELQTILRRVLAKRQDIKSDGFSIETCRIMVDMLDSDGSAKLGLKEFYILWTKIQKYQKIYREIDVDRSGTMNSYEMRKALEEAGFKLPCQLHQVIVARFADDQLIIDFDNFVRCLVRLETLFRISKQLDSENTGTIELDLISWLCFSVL
Experiment: m-calpain protease blockers, concentration series – biochemical, fluorogenic peptide substrate, dose response (AID 1420)
Assay type: functional
Active and inactive are the calls of the source.
Property measured: IC50

[
  {
    "Compound": "CCOC(=O)c1ccc(NC(=O)Cn2c(-c3nonc3N)nc3ccccc32)cc1",
    "System tested": "Calpain-2 catalytic subunit (Sus scrofa, UniProt P43367)",
    "Result": "18.8 µM (not active)"
  },
  {
    "Compound": "COc1ccc(C(=O)CSc2nc(N)nc(SC)c2C#N)cc1",
    "System tested": "Calpain-2 catalytic subunit (Sus scrofa, UniProt P43367)",
    "Result": "17.3 µM (not active)"
  },
  {
    "Compound": "CCOc1cc(/C=N/NC(=O)c2ccncc2)ccc1OS(C)(=O)=O",
    "System tested": "Calpain-2 catalytic subunit (Sus scrofa, UniProt P43367)",
    "Result": "< 0.4 µM (not active)"
  },
  {
    "Compound": "COC(=O)c1ccc(NC(S)=NC2CC3CCC2C3)cc1 (stereo not given)",
    "System tested": "Calpain-2 catalytic subunit (Sus scrofa, UniProt P43367)",
    "Result": "16.4 µM (active)"
  },
  {
    "Compound": "Cc1ccc(NC(=O)CN2CCC(Cc3ccccc3)CC2)cc1S(=O)(=O)N(C)C",
    "System tested": "Calpain-2 catalytic subunit (Sus scrofa, UniProt P43367)",
    "Result": "27.3 µM (not active)"
  },
  {
    "Compound": "O=C(CN1CC[n+]2c(-c3cccs3)csc21)c1ccc(-c2ccccc2)cc1",
    "System tested": "Calpain-2 catalytic subunit (Sus scrofa, UniProt P43367)",
    "Result": "22.1 µM (not active)"
  },
  {
    "Compound": "COc1ccccc1/C=C(/C(=O)OCC(=O)Nc1ccccc1C)c1ccccc1",
    "System tested": "Calpain-2 catalytic subunit (Sus scrofa, UniProt P43367)",
    "Result": "9.36 µM (not active)"
  },
  {
    "Compound": "CCOC(=O)c1ccc(/N=c2\\scc(C)n2CC)cc1",
    "System tested": "Calpain-2 catalytic subunit (Sus scrofa, UniProt P43367)",
    "Result": "> 50 µM (not active)"
  },
  {
    "Compound": "CCCCNC(=O)c1ccccc1C(=O)NCCCC",
    "System tested": "Calpain-2 catalytic subunit (Sus scrofa, UniProt P43367)",
    "Result": "< 0.4 µM (not active)"
  },
  {
    "Compound": "COc1ccc(COC(=O)Nc2cc3c(C(F)(F)F)nn(C)c3s2)cc1",
    "System tested": "Calpain-2 catalytic subunit (Sus scrofa, UniProt P43367)",
    "Result": "14 µM (active)"
  }
]
